Target: T1, human IL13 R130Q (human, UniProt P35225 35-146, biotinylated (sites not given))
T1 construct: Peprotech; also called IL13R13Q; R111Q
T1 sequence (P35225 35-146 limits assumed, stated change not applied): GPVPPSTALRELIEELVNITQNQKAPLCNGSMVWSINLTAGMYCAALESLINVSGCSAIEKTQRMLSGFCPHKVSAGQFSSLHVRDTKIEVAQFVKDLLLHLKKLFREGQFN
Assay: Luminex competition, 80 pM biotin-IL13 R130Q binding to IL13Ra2-Fc beads
endpoint: IC50 (nM)
Just the number please, in nM, no unit attached.

Ask: Which IC50 reading was recorded for the binder IL13 binding protein 6G9 (designed binder) DLGKKLLEAARAGQDDEVRILMANGADVNARDSYGSTPLHLAAREGHLEIVEVLLKYGADVNAKDMIGDTPLHLAAYRGHLEIVEVLLKNGADVNASDITGETPLHLAAQIGHLEIVEVLLKYGADVNAQDKFGKTAFDISIDNGNEDLAEILQKLN ?
Result: 0.031

Ask: Which IC50 reading was recorded for the binder 5H7 (designed binder, N-Cap-(AR)3-C-Cap) DLGKKLLEAARAGQDDEVRILMANGADVNAADMYGTTPQHLAARTGHLEIVEVLLKYGADVNAADFLGDTPLHLAAYHGHLEIVEVLLKHGADVNASDITGETPLHLAAHLGHLEIVEVLLKYGADVNAQDKFGKTAFDISIDNGNEDLAEILQKLN ?
Result: 0.158

Ask: Which IC50 reading was recorded for the binder 6D4 (designed binder, N-Cap-(AR)3-C-Cap) DLGKKLLEAARAGQDDEVRILMANGADVNAADDYGSTPLHLAARSGHLEIVEVLLKHGADVNANDFIGDTPLHLAAYNGHLEIVEVLLKNGADVNATDITGETPLHLAAERGHLEIVEVLLKNGADVNTQDKFGKTAFDISIDNGNEDLAEILQKLN ?
Result: 0.0048
